Biological target: T1, human NKG2A/CD94 on cells (CHOK1-hNKG2A/CD94) (human, UniProt P26715 1-233; Q13241 1-179)
T1 construct: whole, on cells; the killing assays (functional rows) used NK92 cells or primary human NK cells that carry the receptor; also called human NKG2A overexpressing cells; human NKG2A overexpressing cell line
T1 sequence (P26715 whole entry, chain 1 of 2): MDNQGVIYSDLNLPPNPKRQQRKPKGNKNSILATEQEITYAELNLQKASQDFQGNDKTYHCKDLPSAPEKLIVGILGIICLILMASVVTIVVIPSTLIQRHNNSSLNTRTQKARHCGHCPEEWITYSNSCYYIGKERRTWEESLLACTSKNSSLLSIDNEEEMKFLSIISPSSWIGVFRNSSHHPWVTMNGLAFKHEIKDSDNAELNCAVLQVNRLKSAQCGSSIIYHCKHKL
T1 sequence (Q13241 whole entry, chain 2 of 2): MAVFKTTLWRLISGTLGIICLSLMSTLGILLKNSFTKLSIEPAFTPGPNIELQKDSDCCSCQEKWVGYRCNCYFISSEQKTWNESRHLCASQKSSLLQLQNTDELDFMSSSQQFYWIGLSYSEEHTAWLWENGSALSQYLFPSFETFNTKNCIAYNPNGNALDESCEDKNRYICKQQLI
Test: FACS on CHOK1-hNKG2A/CD94 cells

# binder, binding result
records = [
    ("cAb-24 (antibody, human IgG4 S228P, kappa, V domains shown, human-mouse chimeric antibody, human IgG4 constant region; also called antibody number 24; NKG2A chimeric antibody) VH: EVQLQQSVAELVRPGASVKLSCTASGFNIQNTYMHWVKQRPEQGLEWIGRIDPANGNTKYAPKFQGKATITADTSSNTAYLQLSSLTSEDTAIYYCARYYDSRYGYWGQGTTLTVSS VL: DIKMTQSPSSMYASLGERVTITCKASQDINSYLSWFQQKPGKSPTTLIYRANRLVDGVPSRFSGSGSGQDYSLTISSLEYEDLGIYFCLQYDEFPWTFGGGTKLEIKR", "binds"),
    ("cAb-17 (antibody, human IgG4 S228P, kappa, V domains shown, human-mouse chimeric antibody, human IgG4 constant region; also called antibody number 17; NKG2A chimeric antibody) VH: EVQLQQSVAELVRPGASVKLSCTASGFNIKNTYIDWVKQRPEQGLEWIGNIDPANGNTKYAPKFQGKATITADTSSNTAYVQLSSLTSEDTAIYYCARWGGWDVRFAYWGQGTLVTVSA VL: DIKMTQSPSSMYASLGERVTITCKASQDINTYLSWFQQKPGKSPKTLIYRANRLVDGVPSRFSGSGSGQNYSLTISSLEYEDMGIYYCLQYDEFPLTFGAGTKLELKR", "binds"),
    ("cAb-9 (antibody, human IgG4 S228P, kappa, V domains shown, human-mouse chimeric antibody, human IgG4 constant region; also called antibody number 9; NKG2A chimeric antibody) VH: EVQLQQSVAELVRPGASVKLSCTASGFNIQNTYMHWVKERPEQGLEWIGRIDPANGDTEFAPKFQGKATLTTDTSSNTAYLQLSSLTSEDTAIYYCGRERYFYGSRGFAYWGQGTLVTVSA VL: DILMTQSPPSMSVSLGDTVSITCHASQGISSNIGWLQQKPGKSFKGLIYHGTNLEDGVPSRFSGSGSGADYSLTISSLESEDFADYYCVQYAQFPWTFGGGTKLEIKR", "binds"),
]
